Each recorded value in this set is attributed to ChEMBL document CHEMBL5104169.

# TEST: Cytotoxicity against mouse RAW264.7 cells assessed as cell viability at 10 uM measured after 24 hrs by CCK-8 assay relative to control
# Format: toxicity, cell-based
# MEASUREMENT CONTEXT: read-out: Activity
ENDPOINT: viability at 24 h, 10 µM

Quick note, viability at 24 h, 10 µM for C[C@H](CC[C@@H](O)C(C)(C)O)[C@H]1CC[C@@]2(C)[C@@H]3CC=C4[C@@H](Cc5c([nH]c6ccccc56)C4(C)C)[C@]3(C)[C@H](O)C[C@]12C landed at > 95%

Quick note, viability at 24 h, 10 µM for CC(C)c1ccc2[nH]c3c(c2c1)C[C@@H]1C(=CC[C@@H]2[C@@]1(C)[C@H](O)C[C@]1(C)[C@@H]([C@H](C)CC[C@@H](O)C(C)(C)O)CC[C@@]21C)C3(C)C landed at > 95%

Quick note, viability at 24 h, 10 µM for C[C@H](CC[C@@H](O)C(C)(C)O)[C@H]1CC[C@@]2(C)[C@@H]3CC=C4[C@@H](Cc5c([nH]c6ccc(Cl)cc56)C4(C)C)[C@]3(C)[C@H](O)C[C@]12C landed at > 95%
